- target-system: T1, ZFP SBS#777 (synthetic)
- T1 chain: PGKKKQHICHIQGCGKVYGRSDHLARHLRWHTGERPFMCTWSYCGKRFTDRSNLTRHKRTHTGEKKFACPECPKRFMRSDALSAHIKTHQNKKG
- protocol-notes: EMSA
- condition-summary: tags: MBP fusion
readout-type: Kd
Hey, just the number and the unit after it is fine.

Kd reported for this binder ATGGACGGGT (dsDNA) DNA 1: ATGGACGGGT DNA 2: ACCCGTCCAT : 3.4 nM
